B1: tRNA (parent)
chain: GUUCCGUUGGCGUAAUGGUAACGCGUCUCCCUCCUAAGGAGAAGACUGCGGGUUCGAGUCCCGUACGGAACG

variants of: B1; assay: yeast fitness relative to wild type (ratio to wild type); higher = fitter; tRNA-Arg(CCU), competitive growth, 37 C, YPD
Fewer inactive variants are shown than the library holds.
Please note: Criterion met applies when yeast fitness is 0.7 or greater, and Criterion not met applies otherwise.

seq | class.name
GUUCCGUUGGCGUAAUGGUAACGCGUCUCCCUCCUAAGGAGAAGACUGCCGGUUCGAGUGCCGUACGGAACG [G50C C60G] | Criterion not met
GUUCCGUUGGCGUAAUGGUAACCCGUCUCCCUCCUAAGGAGAAGACUGCGCGUUCGAGUCCCGUACGGAACG [G23C G51C] | Criterion not met
GUUUCGUUGGCGUAAUGGUAACGCGUCUCCCUCCUUAGGCGAAGACUGCGGGUUCGAGUCCCGUACGGAACG [C4U A36U A40C] | Criterion not met
GUUCAGUUGGCGUAAUGGUAACGCGUCUCCCUCCUAAGGAGAAGACUGCGCGUUCGAGUCCCCUCCGGAUCG [C5A G51C G63C A65C A70U] | Criterion not met
GUUCCGUUAGCGUAAUGGUAACGCGUCUCCGUCCUAAGGAGAAGACUGCGGGUUCGAGUCCCGUACGGAACG [G9A C31G] | Criterion met
GUUCCGUUGGGGUAAUGGUAACGGGUUUCCCUCCUAAGGAGAAGACUGCGGGUUUGAGUCCCGUACGGAACG [C11G C24G C27U C55U] | Criterion not met
GUUCCGUUGGCGUAAUGGUAGCGCGUCUCCGUCCUAAGGAGAAGACUGCGGGUUCGAGUCCCGUCCGGAACG [A21G C31G A65C] | Criterion not met
GUUCCGUUGGCGUAAUUGUAACGCGUCUCCCUCCUAAGGAGAAGAAUGCGGGUUCGAGUCCCGUACGGAACG [G17U C46A] | Criterion met
GUUCCGUUGGCGUAAUGGUAACGCGUCUCCCUCCUAACGAGAAGACUGCGGGUUCGAGUCCCGUACGGACCG [G38C A70C] | Criterion met
GUUCCAUUGGCGUAUUGGUAACGCGUCUCCCUCCUAAGGAGAAGACUGCGGGUUCGAGUCCCGUACGGUUCG [G6A A15U A69U A70U] | Criterion not met
